B1: INTS4 (parent)
chain: YSSGEFSSGRKWGDDAPKEEVDTG

Variants of: B1
Test: protein stability index of a GFP-peptide fusion (GPS, HEK-293T) (PSI 1-6); higher = more stable;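 note: lentivirally expressed fusions sorted by FACS into six bins by GFP to DsRed ratio, PSI derived from sequencing read proportions per bin multiplied by bin number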
Settings: c terminus: a fixed tail appended
observed-property: protein stability index
Answer as a number with no unit attached.

Look over these answered cases.
>>> df
   mutation_annotation  numeric_value
0                 G24D           2.16
1                 K18E           3.84
2                  S7F           2.98
3                  G4W           2.43
4                 D22R           2.73

What the record says about K11D : protein stability index is 2.73
